From: patent US20220226299A1

Below is a list of entries, each paired with its recorded IC50 value.
TARGET: human Cav3.2 channels (Homo sapiens, UniProt O95180)
Construct: human Cav3.2 channel ORF (Open Reading Frame) gene
Sequence (O95180 whole entry): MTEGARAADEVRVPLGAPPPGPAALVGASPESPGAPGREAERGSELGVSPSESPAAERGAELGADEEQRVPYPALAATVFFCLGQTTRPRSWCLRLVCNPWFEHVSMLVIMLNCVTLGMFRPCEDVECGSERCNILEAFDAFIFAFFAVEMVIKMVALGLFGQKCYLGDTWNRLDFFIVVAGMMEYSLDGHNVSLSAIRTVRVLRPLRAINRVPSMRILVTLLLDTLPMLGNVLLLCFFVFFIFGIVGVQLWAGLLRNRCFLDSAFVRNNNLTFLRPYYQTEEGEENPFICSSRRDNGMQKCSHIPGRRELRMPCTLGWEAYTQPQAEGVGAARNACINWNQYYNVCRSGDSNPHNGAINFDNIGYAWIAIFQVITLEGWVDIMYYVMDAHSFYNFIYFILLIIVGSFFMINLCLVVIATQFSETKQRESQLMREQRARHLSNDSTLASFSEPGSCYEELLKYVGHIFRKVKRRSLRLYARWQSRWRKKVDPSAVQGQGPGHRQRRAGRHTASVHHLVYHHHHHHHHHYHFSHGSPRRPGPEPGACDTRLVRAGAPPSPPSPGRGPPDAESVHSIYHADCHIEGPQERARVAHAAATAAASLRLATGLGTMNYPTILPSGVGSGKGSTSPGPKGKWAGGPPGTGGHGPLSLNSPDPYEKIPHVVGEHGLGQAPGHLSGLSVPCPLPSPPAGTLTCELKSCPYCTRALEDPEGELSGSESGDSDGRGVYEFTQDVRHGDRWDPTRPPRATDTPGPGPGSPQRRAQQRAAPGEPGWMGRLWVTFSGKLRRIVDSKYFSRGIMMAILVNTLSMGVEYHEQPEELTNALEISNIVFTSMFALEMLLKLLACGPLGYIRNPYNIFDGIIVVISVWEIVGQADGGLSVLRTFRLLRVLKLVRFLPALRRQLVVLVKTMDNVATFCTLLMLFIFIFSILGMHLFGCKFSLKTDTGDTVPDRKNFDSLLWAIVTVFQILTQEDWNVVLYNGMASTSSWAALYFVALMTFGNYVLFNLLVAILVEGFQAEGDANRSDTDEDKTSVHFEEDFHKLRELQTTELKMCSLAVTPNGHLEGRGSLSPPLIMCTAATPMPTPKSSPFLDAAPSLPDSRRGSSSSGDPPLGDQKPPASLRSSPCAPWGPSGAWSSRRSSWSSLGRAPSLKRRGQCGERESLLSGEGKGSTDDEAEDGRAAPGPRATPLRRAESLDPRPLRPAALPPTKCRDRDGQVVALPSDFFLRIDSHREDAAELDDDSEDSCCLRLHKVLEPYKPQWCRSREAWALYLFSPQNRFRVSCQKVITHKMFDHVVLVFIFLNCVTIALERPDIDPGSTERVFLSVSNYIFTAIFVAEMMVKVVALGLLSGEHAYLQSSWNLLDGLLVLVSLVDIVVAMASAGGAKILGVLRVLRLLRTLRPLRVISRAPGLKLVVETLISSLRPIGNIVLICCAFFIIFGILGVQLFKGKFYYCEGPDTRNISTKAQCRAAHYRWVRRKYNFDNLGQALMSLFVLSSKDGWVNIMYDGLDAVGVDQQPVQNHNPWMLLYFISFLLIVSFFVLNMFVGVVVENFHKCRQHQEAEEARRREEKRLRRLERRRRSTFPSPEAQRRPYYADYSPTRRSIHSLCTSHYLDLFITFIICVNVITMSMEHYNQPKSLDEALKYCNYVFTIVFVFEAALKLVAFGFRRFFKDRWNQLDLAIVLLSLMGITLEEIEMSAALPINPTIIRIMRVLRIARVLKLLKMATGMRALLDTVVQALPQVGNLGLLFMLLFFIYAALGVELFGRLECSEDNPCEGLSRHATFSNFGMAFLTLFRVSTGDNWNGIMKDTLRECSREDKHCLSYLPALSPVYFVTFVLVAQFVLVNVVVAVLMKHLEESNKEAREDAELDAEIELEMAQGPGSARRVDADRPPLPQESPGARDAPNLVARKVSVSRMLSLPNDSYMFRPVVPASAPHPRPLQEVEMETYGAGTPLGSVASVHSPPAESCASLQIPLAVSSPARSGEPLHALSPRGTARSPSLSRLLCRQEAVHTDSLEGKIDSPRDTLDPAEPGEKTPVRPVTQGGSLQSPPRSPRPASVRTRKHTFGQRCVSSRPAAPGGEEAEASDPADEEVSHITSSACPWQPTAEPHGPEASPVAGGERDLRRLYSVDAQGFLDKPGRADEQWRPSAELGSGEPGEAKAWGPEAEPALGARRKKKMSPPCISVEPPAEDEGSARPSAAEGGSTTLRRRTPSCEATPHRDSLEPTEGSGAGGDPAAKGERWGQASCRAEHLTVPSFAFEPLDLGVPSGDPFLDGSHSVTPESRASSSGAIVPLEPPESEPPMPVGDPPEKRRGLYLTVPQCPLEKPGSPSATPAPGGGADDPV
PROTOCOL DETAILS: T-type calcium blocking action: intracellular calcium (Fluo-4 AM fluorescence) in HEK293 cells steadily expressing human Cav3.2 channels
EXPERIMENTAL CONDITIONS: HEK293 cells expressing human Cav3.2; KCl-stimulated calcium influx, Fluo-4 fluorescence; Tables 1 to 3

MOLECULE	TARGET	IC50
O=C(N[C@@H]1CCCN(c2ccc(C(F)(F)F)nc2)C1)C1CC1c1nc2ccccc2[nH]1 (single isomer, unassigned) [Example 63B]	human Cav3.2 channels (Homo sapiens, UniProt O95180)	> 10000 nM
O=C(Cc1ccc(Br)cc1)N[C@@H]1CCN(c2cncc(C(F)(F)F)c2)C1 [Example 171]	human Cav3.2 channels (Homo sapiens, UniProt O95180)	110 nM
O=C(N[C@@H]1CCN(c2nc(C(F)(F)F)cs2)C1)[C@H]1C[C@@H]1c1nc2ccccc2[nH]1 [Example 64]	human Cav3.2 channels (Homo sapiens, UniProt O95180)	37 nM
O=C(Cc1nc2ccc(Cl)cc2o1)N[C@@H]1CCN(c2cncc(C(F)(F)F)c2)C1 [Example 97]	human Cav3.2 channels (Homo sapiens, UniProt O95180)	250 nM

----------
TARGET: human Cav3.2 channels (Homo sapiens)
Construct: human Cav3.2 channel ORF (Open Reading Frame) gene
PROTOCOL DETAILS: T-type calcium blocking action: intracellular calcium (Fluo-4 AM fluorescence) in HEK293 cells steadily expressing human Cav3.2 channels
EXPERIMENTAL CONDITIONS: HEK293 cells expressing human Cav3.2; KCl-stimulated calcium influx, Fluo-4 fluorescence; Tables 1 to 3

COMPOUND	IC50, nM
O=C(N[C@@H]1CCN(c2cncc(C(F)(F)F)c2)C1)[C@H]1C[C@@H]1c1nc2cc(F)ccc2o1 [Example 49]	7.1
CC(C)c1ccc(CC(=O)NC2CCN(c3cncc(C(F)(F)F)c3)CC2)cc1 [Example 109]	240
C[C@@H]1CN(c2ccc(CC(=O)N[C@@H]3CCN(c4cncc(C(F)(F)F)c4)C3)cc2)C[C@H](C)O1 [Example 86]	370
O=C(Cc1ccc(C2CC2)cc1)N[C@H]1CN(c2cncc(C(F)(F)F)c2)C[C@@H]1O [Example 5]	290
O=C(N[C@@H]1CCN(c2ccc(C(F)(F)F)nc2)C1)[C@H]1C[C@@H]1c1nc2cc(F)ccc2o1 [Example 51]	120
O=C(Cc1ccc(N2CCNCC2)cc1)N[C@@H]1CCN(c2cncc(C(F)(F)F)c2)C1 [Example 94]	910
CC(=O)N1CCN(c2ccc(CC(=O)N[C@@H]3CCN(c4cncc(C(F)(F)F)c4)C3)cc2)CC1 [Example 95]	230
O=C(Cc1ccc(N2CC3(COC3)C2)cc1)N[C@@H]1CCN(c2cncc(C(F)(F)F)c2)C1 [Example 46]	260

----------
Below is a list of entries, each paired with its recorded pIC50 value.
TARGET: human Cav3.2 channels (Homo sapiens)
Construct: human Cav3.2 channel ORF (Open Reading Frame) gene; expressed in transfected cells; host or cells: HEK293 cells (ATCC No. CRL-1573), pcDNA3.1(+) plasmid
PROTOCOL DETAILS: T-type calcium blocking action: intracellular calcium (Fluo-4 AM fluorescence) in HEK293 cells steadily expressing human Cav3.2 channels
Format: cell-based
EXPERIMENTAL CONDITIONS: HEK293 cells expressing human Cav3.2; KCl-stimulated calcium influx, Fluo-4 fluorescence; Tables 1 to 3
Method: T-Type Calcium Blocking Action (1) Construction of Cells Steadily Expressing Human Cav3.2 Channels […] The cells steadily expressing human Cav3.2 channels produced by testing method (1) were seeded on a 96-well plate (Dulbecco's modified Eagle medium (DMEM) medium containing 10% fetal bovine serum (FBS) was used as a medium). […] Then, the cells were further allowed to stand at room temperature under light-shielded conditions for 15 minutes and placed in a microplate reader EnVision (PerkinElmer). […]
pIC50: −log10 of the molar value.
REPORTED PROPERTY: pIC50

MOLECULE	ASSAY RESULT
O=C(Cc1ccc(N2CC3CC2CO3)cc1)N[C@@H]1CCN(c2cncc(C(F)(F)F)c2)C1 (single isomer, unassigned)	7.52
NC(C(=O)N[C@@H]1CCN(c2cncc(C(F)(F)F)c2)C1)c1ccc(C2CC2)cc1 (single isomer, unassigned) [Example 137A]	7.00
O=C(N[C@@H]1CCN(c2cncc(C(F)(F)F)c2)C1)C1CC1c1ccc(Br)cc1 (single isomer, unassigned) [Example 100B]	6.34

----------
TARGET: human Cav3.2 channels (Homo sapiens, UniProt O95180)
Construct: human Cav3.2 channel ORF (Open Reading Frame) gene
PROTOCOL DETAILS: T-type calcium blocking action: intracellular calcium (Fluo-4 AM fluorescence) in HEK293 cells steadily expressing human Cav3.2 channels
EXPERIMENTAL CONDITIONS: HEK293 cells expressing human Cav3.2; KCl-stimulated calcium influx, Fluo-4 fluorescence; Tables 1 to 3
Sorting guide: entries reporting IC50 beneath 200 nM go in the yes pile, the rest go in the no pile.

MOLECULE	TARGET	CLASS LABEL
CC(C)(O)COc1ccc(CC(=O)N[C@@H]2CCN(c3cncc(C(F)(F)F)c3)C2)cc1	human Cav3.2 channels (Homo sapiens, UniProt O95180)	no
O=C(Cc1ccc(C2CC2)cc1)N[C@@H]1CCN(c2cccc(O)c2)C1	human Cav3.2 channels (Homo sapiens, UniProt O95180)	no
O=C(N[C@@H]1CCN(c2cncc(C(F)(F)F)c2)C1)C1CC1c1cc(Cl)cc(Cl)c1 (single isomer, unassigned) [Example 99A]	human Cav3.2 channels (Homo sapiens, UniProt O95180)	yes
O=C(N[C@@H]1CCN(c2ccc(C(F)(F)F)nc2)C1)[C@H]1C[C@@H]1c1nc2ccc(F)cc2o1	human Cav3.2 channels (Homo sapiens, UniProt O95180)	no
O=C(Cc1ccc(N2CCOCC2)cc1)N[C@@H]1CCN(c2ccc(C(F)(F)F)nc2)C1	human Cav3.2 channels (Homo sapiens, UniProt O95180)	no
O=C(Cc1ccc(N2CCOCC2)cc1)N[C@@H]1CCN(c2cncc(C(F)(F)F)c2)C1	human Cav3.2 channels (Homo sapiens, UniProt O95180)	yes
O=C(Cc1ccc2[nH]ncc2c1)N[C@@H]1CCN(c2cncc(C(F)(F)F)c2)C1	human Cav3.2 channels (Homo sapiens, UniProt O95180)	no

----------
Below is a list of entries, each paired with its recorded pIC50 value.
TARGET: human Cav3.2 channels (Homo sapiens, UniProt O95180)
Construct: human Cav3.2 channel ORF (Open Reading Frame) gene
PROTOCOL DETAILS: T-type calcium blocking action: intracellular calcium (Fluo-4 AM fluorescence) in HEK293 cells steadily expressing human Cav3.2 channels
EXPERIMENTAL CONDITIONS: HEK293 cells expressing human Cav3.2; KCl-stimulated calcium influx, Fluo-4 fluorescence; Tables 1 to 3
pIC50: −log10 of the molar value.

COMPOUND	TARGET	pIC50
CCOC(=O)C(C)(C)Oc1cccc(N2CC[C@@H](NC(=O)Cc3ccc(C4CC4)cc3)C2)c1	human Cav3.2 channels (Homo sapiens, UniProt O95180)	6.52
O=C(Cc1ccc(C2CC2)cc1)N[C@]12CC1CN(c1cncc(C(F)(F)F)c1)C2 (stereo partly drawn)	human Cav3.2 channels (Homo sapiens, UniProt O95180)	6.39
O=C(Cc1ccc(C2CC2)cc1)N[C@@H]1CCN(c2cncc(OCC(F)(F)F)c2)C1	human Cav3.2 channels (Homo sapiens, UniProt O95180)	6.08
O=C(N[C@@H]1CCN(c2ccc(C(F)(F)F)cc2)C1)C1CC1c1nc2ccccc2[nH]1 (single isomer, unassigned)	human Cav3.2 channels (Homo sapiens, UniProt O95180)	6.96
Cn1ccc2cc(CC(=O)N[C@@H]3CCN(c4cncc(C(F)(F)F)c4)C3)ccc21	human Cav3.2 channels (Homo sapiens, UniProt O95180)	8.27
O=C(Cc1ccc(C(F)(F)F)cc1)N[C@@H]1CCN(c2ccc(C(F)(F)F)nc2)C1	human Cav3.2 channels (Homo sapiens, UniProt O95180)	6.70
O=C(Cc1ccc2cn[nH]c2c1)N[C@@H]1CCN(c2cncc(C(F)(F)F)c2)C1	human Cav3.2 channels (Homo sapiens, UniProt O95180)	6.43
O=C(N[C@@H]1CCCN(c2ccc(C(F)(F)F)cc2)C1)[C@H]1C[C@@H]1c1nc2ccccc2[nH]1	human Cav3.2 channels (Homo sapiens, UniProt O95180)	5.05
O=C(N[C@@H]1CCN(c2cncc(C(F)(F)F)c2)C1)C1CC1c1ccc(Cl)cc1 (single isomer, unassigned) [Example 108B]	human Cav3.2 channels (Homo sapiens, UniProt O95180)	6.70
CC(C)(C)c1csc(N2CC[C@@H](NC(=O)[C@H]3C[C@@H]3c3nc4ccccc4[nH]3)C2)n1	human Cav3.2 channels (Homo sapiens, UniProt O95180)	7.12
CN1CCN(c2ccc(CC(=O)N[C@@H]3CCN(c4cncc(C(F)(F)F)c4)C3)cc2)CC1	human Cav3.2 channels (Homo sapiens, UniProt O95180)	6.47
O=C(Cc1cc(Cl)cc(Cl)c1)N[C@@H]1CCN(c2cncc(C(F)(F)F)c2)C1	human Cav3.2 channels (Homo sapiens, UniProt O95180)	5.64
O=C(N[C@@H]1CCN(c2cncc(C(F)(F)F)c2)C1)C1CC1c1cc(Cl)cc(Cl)c1 (single isomer, unassigned) [Example 99B]	human Cav3.2 channels (Homo sapiens, UniProt O95180)	6.32
Cn1ccc2ccc(CC(=O)N[C@@H]3CCN(c4ccc(C(F)(F)F)nc4)C3)cc21	human Cav3.2 channels (Homo sapiens, UniProt O95180)	7.14
CC(C(=O)N[C@@H]1CCN(c2ccc(C(F)(F)F)nc2)C1)c1ccc(C(F)(F)F)cc1 (stereo partly drawn)	human Cav3.2 channels (Homo sapiens, UniProt O95180)	5.85
